# measured_on: Ryanodine receptor (Hemicentrotus pulcherrimus)
# protocol_notes: Agonist activity at ryanodine receptor in Hemicentrotus pulcherrimus egg homogenate assessed as increase in intracellular calcium mobilization by Fluo-3 dye based fluorimetric assay
measure_name: log10(EC50) (log10 of the value in nM)
Values are log10 of EC50 in nM.

According to the records, this molecule Nc1c2ncn3c2nc[n+]1[C@@H]1S[C@H](COP(=O)([O-])OP(=O)(O)OC[C@H]2O[C@@H]3[C@H](O)[C@@H]2O)[C@@H](O)[C@H]1O displays log10(EC50) of 1.59

According to the records, this molecule Nc1c2ncn3c2nc[n+]1[C@@H]1O[C@H](COP(=O)([O-])OP(=O)(O)OC[C@H]2O[C@@H]3[C@H](O)[C@@H]2O)[C@@H](O)[C@H]1O displays log10(EC50) of 2.32

According to the records, this molecule Nc1c2nc(Cl)n3c2nc[n+]1[C@@H]1S[C@H](COP(=O)([O-])OP(=O)(O)OC[C@H]2O[C@@H]3[C@H](O)[C@@H]2O)[C@@H](O)[C@H]1O displays log10(EC50) of 4.08

According to the records, this molecule Nc1nc2c(N)[n+]3cnc2n1[C@@H]1O[C@H](COP(=O)(O)OP(=O)([O-])OC[C@H]2S[C@@H]3[C@H](O)[C@@H]2O)[C@@H](O)[C@H]1O displays log10(EC50) of 2.94

According to the records, this molecule [N-]=[N+]=Nc1nc2c(N)[n+]3cnc2n1[C@@H]1O[C@H](COP(=O)(O)OP(=O)([O-])OC[C@H]2S[C@@H]3[C@H](O)[C@@H]2O)[C@@H](O)[C@H]1O displays log10(EC50) of 4.57

Numbers sourced from ChEMBL document CHEMBL4011637.
